Below, each entry is listed alongside its reported pIC50.
Molecular target: TEAD
Sequence (P28347 209-426): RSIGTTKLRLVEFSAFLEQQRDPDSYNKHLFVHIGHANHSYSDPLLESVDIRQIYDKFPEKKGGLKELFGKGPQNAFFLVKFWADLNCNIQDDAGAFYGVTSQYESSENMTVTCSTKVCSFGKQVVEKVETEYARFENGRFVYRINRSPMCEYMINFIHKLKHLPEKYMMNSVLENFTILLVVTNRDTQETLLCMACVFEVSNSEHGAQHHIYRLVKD
Test: IC50 for TEAD binding (TR-FRET test)
pIC50: −log10 of the molar value. Bridges are numbered along the chain shown (N, C = ends). Where no end group is shown, it is not given here. [ ]: non-standard residue; d: D form. hCys = N[C@@H](CCS)C(=O)O; Orn = NCCC[C@H](N)C(=O)O; Dab = NCC[C@H](N)C(=O)O
readout_label: pIC50

{"binder": "VPF[hCys]LR[Dab]LPDSFCKPPE (disulfide 4-13) [polypeptide represented by SEQ ID NO.: 6]", "experimental_result": 7.55}
{"binder": "VPF[hCys]LR[Orn]LPDSFCKPPE (disulfide 4-13) [polypeptide represented by SEQ ID NO.: 5]", "experimental_result": 7.37}

Origin of the recorded values: patent US20160272690A1
